The origin of these recorded values is paper PMC12040169.

Assay: in vitro
Details: human, hela cells, % viability
Readout Type: viability at 28.5 h, 10 µM (%)
State the answer as a number, implicitly in %.

- Compound: "Cc1[nH]nc(O)c1C(c1ccc(OC(=O)c2ccc(F)cc2)cc1)c1c(O)n[nH]c1C"
  viability at 28.5 h, 10 µM / %: 96.8
- Compound: "CC(Oc1cccc(Cl)c1)C(=O)NCc1ccc(S(N)(=O)=O)cc1 (centres unmarked)"
  viability at 28.5 h, 10 µM / %: 97
- Compound: "FC(F)(F)c1cccc(Sc2cccs2)n1"
  viability at 28.5 h, 10 µM / %: 91.5
- Compound: "COc1ccc([N+](=O)[O-])cc1NC(=O)c1cc(-c2ccccc2Cl)nc2ccc(C)cc12"
  viability at 28.5 h, 10 µM / %: 94.1

Let us examine a further case.
Request: Form field: reported viability at 28.5 h, 10 µM of CC1CC(C)CN(C(=O)c2ccccc2NC(=O)C2CC(=O)Nc3ccccc32)C1 (centres unmarked)
Response: 81.8
